B1: HDV Ribozyme (parent)
chain: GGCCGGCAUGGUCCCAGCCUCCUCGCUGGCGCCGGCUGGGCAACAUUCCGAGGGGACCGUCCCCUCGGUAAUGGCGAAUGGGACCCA

Variants of: B1
Assay: self-cleavage, relative activity (ratio to wild type); higher = more cleavage; co-transcriptional
Readings of self-cleavage for the listed variants
measure: self-cleavage

> print(dat)
   mutationid  endpointresult
1   G17C U72C               0
2   A16U C62G           0.575
3   G38U A70C           0.158
4   C21G G28C          0.0755
5   G34A C63U          0.0656
